# MEASURED_ON: abPPO4 (mushroom tyrosinase) (Agaricus bisporus, UniProt C7FF05)
# Construct: glutathione-S-transferase (GST) (N, cleaved yes); made in house; host or cells: E. coli BL21(DE3)
# Sequence (C7FF05 1-379 limits assumed): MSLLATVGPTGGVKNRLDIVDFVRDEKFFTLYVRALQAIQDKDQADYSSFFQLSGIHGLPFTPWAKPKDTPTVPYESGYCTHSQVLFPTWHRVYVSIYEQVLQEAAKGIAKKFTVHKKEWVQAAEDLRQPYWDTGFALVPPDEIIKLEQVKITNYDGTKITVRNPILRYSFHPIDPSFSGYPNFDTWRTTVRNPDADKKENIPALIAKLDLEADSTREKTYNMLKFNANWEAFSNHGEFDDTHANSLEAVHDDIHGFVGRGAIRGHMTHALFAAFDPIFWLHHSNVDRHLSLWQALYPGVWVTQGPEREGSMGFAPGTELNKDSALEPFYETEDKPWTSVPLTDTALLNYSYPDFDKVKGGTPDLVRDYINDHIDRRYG
# PROCEDURE_DETAILS: dopachrome assay, inhibition of abPPO4 diphenolase activity; note: L-DOPA 0.4–1.5 mM
# Assay type: biochemical
# CONDITION_DESCRIPTION: [c] from Dixon plots, average intersection; L-DOPA 0.4–[…], pH 6.8; read-out: Ki [mM], from Dixon plots
MEASUREMENT_NAME: Ki (mM)
Just the number please, in mM, no unit attached.

## Input Ki for [Na+].[Na+].[O]=[W](=[O])([O-])[O-] [[WO4]^2−, Na2WO4, reference compound] ?
## Output 24.8
